The reported numbers originate from patent US10626112B2.

- experimentalSystem: human TRPA1 (Homo sapiens (Human), UniProt O75762)
- Sequence (O75762 whole entry): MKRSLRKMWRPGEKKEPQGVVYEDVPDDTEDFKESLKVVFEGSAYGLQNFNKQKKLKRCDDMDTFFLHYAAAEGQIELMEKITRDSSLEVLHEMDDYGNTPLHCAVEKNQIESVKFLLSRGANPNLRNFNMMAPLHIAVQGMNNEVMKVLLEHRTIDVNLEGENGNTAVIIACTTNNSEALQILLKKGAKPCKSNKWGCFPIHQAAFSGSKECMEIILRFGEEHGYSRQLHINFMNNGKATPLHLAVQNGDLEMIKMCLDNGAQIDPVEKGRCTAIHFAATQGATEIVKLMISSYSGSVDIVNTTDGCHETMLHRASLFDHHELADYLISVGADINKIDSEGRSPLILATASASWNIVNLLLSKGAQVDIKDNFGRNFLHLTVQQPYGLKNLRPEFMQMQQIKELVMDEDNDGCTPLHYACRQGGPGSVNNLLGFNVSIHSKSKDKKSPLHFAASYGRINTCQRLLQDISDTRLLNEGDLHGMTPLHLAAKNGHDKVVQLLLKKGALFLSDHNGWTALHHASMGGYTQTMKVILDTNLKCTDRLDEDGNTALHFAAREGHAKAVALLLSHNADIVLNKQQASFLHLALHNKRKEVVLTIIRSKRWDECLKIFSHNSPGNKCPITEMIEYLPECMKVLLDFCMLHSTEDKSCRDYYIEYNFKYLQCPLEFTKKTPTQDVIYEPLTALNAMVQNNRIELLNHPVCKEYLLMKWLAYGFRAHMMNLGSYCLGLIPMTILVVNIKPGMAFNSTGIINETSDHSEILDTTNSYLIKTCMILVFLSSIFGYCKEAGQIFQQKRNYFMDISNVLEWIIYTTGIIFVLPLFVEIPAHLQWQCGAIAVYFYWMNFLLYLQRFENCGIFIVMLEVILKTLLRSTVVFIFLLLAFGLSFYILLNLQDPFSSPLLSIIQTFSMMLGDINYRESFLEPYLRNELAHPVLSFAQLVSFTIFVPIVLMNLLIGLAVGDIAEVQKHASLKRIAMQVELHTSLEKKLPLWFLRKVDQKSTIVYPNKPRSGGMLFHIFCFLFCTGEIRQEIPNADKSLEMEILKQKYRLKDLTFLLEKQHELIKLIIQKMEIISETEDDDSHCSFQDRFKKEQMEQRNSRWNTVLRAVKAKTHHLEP
- assay: Measurement of TRPA1 antagonist activity (1): intracellular calcium increase
- Format: cell-based
- experimentalContext: 293T cells transfected with human TRPA1 expression plasmid; allylisothiocyanate 20 μM stimulation; intracellular calcium fluorescence; read-out: hTRPA1 IC50
measurementType: log10(IC50) (log10 of the value in µM)

compound="C[C@H](NS(=O)(=O)c1cc2ccccc2o1)C(=O)NCc1cccc(-c2ccc(C(F)(F)F)cn2)c1 [Example 102]" experimentalsystem="human TRPA1 (Homo sapiens (Human), UniProt O75762)" measuredresult=-1.55
compound="C[C@H](NS(=O)(=O)c1cc2cc(F)ccc2o1)C(=O)NCc1cccc(-c2cnc(C(F)(F)F)nc2)c1 [Example 233]" experimentalsystem="human TRPA1 (Homo sapiens (Human), UniProt O75762)" measuredresult=-2.00
compound="N#Cc1ccc(-c2ccc(CNC(=O)[C@@H]3CCCN3S(=O)(=O)c3cc4ccccc4o3)cc2)cc1 [Example 170]" experimentalsystem="human TRPA1 (Homo sapiens (Human), UniProt O75762)" measuredresult=-0.64
compound="O=C(NCc1ccc(-c2ccccc2)cc1)[C@@H]1CCCN1S(=O)(=O)c1cc2cc(F)ccc2o1 [Example 76]" experimentalsystem="human TRPA1 (Homo sapiens (Human), UniProt O75762)" measuredresult=-1.33
compound="O=C(NCc1cncc(-c2ccc(C(F)(F)F)cn2)c1)[C@@H]1CCCN1S(=O)(=O)c1cc2cc(F)ccc2o1 [Example 141]" experimentalsystem="human TRPA1 (Homo sapiens (Human), UniProt O75762)" measuredresult=-2.48
compound="O=C(NCc1ccc(-c2cccc(F)c2)cc1)[C@@H]1CCCN1S(=O)(=O)c1cc2ccccc2o1 [Example 169]" experimentalsystem="human TRPA1 (Homo sapiens (Human), UniProt O75762)" measuredresult=-0.82
compound="O=C(NCc1cccc([S+]([O-])c2ccc(C(F)(F)F)cc2)c1)[C@@H]1CCCN1S(=O)(=O)c1cc2ccccc2o1 (some centres unmarked) [Example 323]" experimentalsystem="human TRPA1 (Homo sapiens (Human), UniProt O75762)" measuredresult=-0.70
compound="O=C(NCc1cccc(/C=C/c2ccc(C(F)(F)F)cc2)c1)[C@@H]1CCCN1S(=O)(=O)c1cc2cc(F)ccc2o1 [Example 297]" experimentalsystem="human TRPA1 (Homo sapiens (Human), UniProt O75762)" measuredresult=-2.12
compound="O=C(NCc1ccnc(-c2ccc(C(F)(F)F)cc2)c1)[C@@H]1[C@@H](O)CCN1S(=O)(=O)c1cc2cc(F)ccc2o1 [Example 95]" experimentalsystem="human TRPA1 (Homo sapiens (Human), UniProt O75762)" measuredresult=-2.27
compound="O=C(NCc1ccnc(-c2ccc(C(F)(F)F)nc2)c1)[C@@H]1CCCN1S(=O)(=O)c1cc2ccccc2o1 [Example 124]" experimentalsystem="human TRPA1 (Homo sapiens (Human), UniProt O75762)" measuredresult=-2.47
compound="N#Cc1ccc(-c2cc(CNC(=S)[C@@H]3CCCN3S(=O)(=O)c3cc4ccccc4o3)ccn2)cc1 [Example 293]" experimentalsystem="human TRPA1 (Homo sapiens (Human), UniProt O75762)" measuredresult=-2.51
compound="O=C(NCc1cccc(OCc2cccc(OCCN3CCOCC3)c2)c1)[C@@H]1CCCN1S(=O)(=O)c1cc2cc(F)ccc2o1 [Example 28]" experimentalsystem="human TRPA1 (Homo sapiens (Human), UniProt O75762)" measuredresult=-1.25
compound="O=C(NCc1cccc(OC(F)(F)F)c1)[C@@H]1CCCN1S(=O)(=O)c1cc2cc(F)ccc2o1 [Example 65]" experimentalsystem="human TRPA1 (Homo sapiens (Human), UniProt O75762)" measuredresult=-1.82
compound="CN(C)c1cccc(COc2cccc(CNC(=O)[C@@H]3CCCN3S(=O)(=O)c3cc4cc(F)ccc4o3)c2)n1 [Example 26]" experimentalsystem="human TRPA1 (Homo sapiens (Human), UniProt O75762)" measuredresult=-1.64
